assay-details: viability loss with induced miR-34 in A549 – imaging, A549 dox-inducible miR-34, nuclei and caspase counts, primary screen (AID 1347080); also: test concentration not given here
assay-setup: A549 miR-34 inducible, Hoechst nuclei count, 48 h; cell number ratio, induced over uninduced
Calls of active or inactive are those of the source.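 The calls were made as follows: active = compounds whose cell count with miR-34 switched on is under 0.7 times the count with it off; inactive = the rest.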
Bench note: report the call from active, inactive

Past entries and their recorded results:
compound	group-label
CC(C)CN(C[C@H](O)[C@@H](Cc1ccccc1)NC(=O)O[C@@H]1CO[C@H]2OCC[C@H]21)S(=O)(=O)c1ccc(N)cc1	inactive
OCC(O)C(O)CO (stereo unspecified)	inactive
NC(=O)c1ncn(C2OC(CO)C(O)C2O)c1N (stereo unspecified)	inactive
COc1cc(C2c3cc4c(cc3C(OC3OC5COC(c6cccs6)OC5C(O)C3O)C3COC(=O)[C@H]23)OCO4)cc(OC)c1O (stereo partly specified)	inactive
O=C(c1ccc2c(c1)OCCO2)N1CCCCC1	inactive

Next compound, please.
QUERY: Returns: the outcome recorded for OCC(O)COc1ccc(Cl)cc1 (stereo unspecified) in this assay.
RESULT: inactive
